SYSTEM_UNDER_TEST: recombinant human 17β-HSD1 (Homo sapiens, UniProt P14061)
Construct: made in house; host or cells: Sd9 (Sf9) insect cells, baculovirus (Bac to Bac Expression System); microsomal fraction
Sequence (P14061 whole entry): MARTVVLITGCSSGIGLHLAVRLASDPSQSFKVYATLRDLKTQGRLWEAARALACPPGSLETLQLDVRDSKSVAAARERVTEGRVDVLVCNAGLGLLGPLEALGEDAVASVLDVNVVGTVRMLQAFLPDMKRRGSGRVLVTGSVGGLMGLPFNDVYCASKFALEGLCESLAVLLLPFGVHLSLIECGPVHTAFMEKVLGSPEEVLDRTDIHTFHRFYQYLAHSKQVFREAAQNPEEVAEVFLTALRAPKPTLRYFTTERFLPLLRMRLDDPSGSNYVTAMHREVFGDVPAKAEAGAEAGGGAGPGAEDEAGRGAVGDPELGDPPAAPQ
ASSAY_EXPLANATION: Inhibition of recombinant human 17β-HSD1 (conversion of 3H-estrone to estradiol, HPLC)
Assay type: biochemical
CONDITION_DESCRIPTION: inhibitor 1 μM; 30 nM estrone, 1 mM NADPH, 30 min at RT; read-out: 17β-HDS1 Inhibition % at 1 μM
inhibition at 1 µM by entry:
Report the value in % with no unit label.

The examples below pair each entry with its known result.
INSERT INTO assay_data (compound, result_value) VALUES
  ('Cc1cnc(NC(=O)CC[C@@H]2C/C(=N\OCC(=O)O)[C@@]3(C)CCC4c5cc(C(C)(C)C)c(O)cc5CCC4C23)s1 (stereo partly drawn) [Compound 110]', 70),
  ('CO/N=C1\C[C@@H](CCC(=O)Nc2ncc(C)s2)C2C3CCc4cc(OC)c(I)cc4C3CC[C@]12C (stereo partly drawn) [Compound 84]', 62);

The record that follows has no inhibition at 1 µM shown yet.
Challenge: I'd like to know its inhibition at 1 µM. The compound in question is Cc1cnc(NC(=O)CC[C@@H]2C/C(=N\O)[C@@]3(C)CCC4c5ccccc5CCC4C23)s1 (stereo partly drawn) [Compound 59]
Response given: 93
